- Experimental system: furin, P09958;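 also: purified furin at 1:10 enzyme:substrate in 50 mM HEPES pH 7.5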
- Sequence (P09958 whole entry): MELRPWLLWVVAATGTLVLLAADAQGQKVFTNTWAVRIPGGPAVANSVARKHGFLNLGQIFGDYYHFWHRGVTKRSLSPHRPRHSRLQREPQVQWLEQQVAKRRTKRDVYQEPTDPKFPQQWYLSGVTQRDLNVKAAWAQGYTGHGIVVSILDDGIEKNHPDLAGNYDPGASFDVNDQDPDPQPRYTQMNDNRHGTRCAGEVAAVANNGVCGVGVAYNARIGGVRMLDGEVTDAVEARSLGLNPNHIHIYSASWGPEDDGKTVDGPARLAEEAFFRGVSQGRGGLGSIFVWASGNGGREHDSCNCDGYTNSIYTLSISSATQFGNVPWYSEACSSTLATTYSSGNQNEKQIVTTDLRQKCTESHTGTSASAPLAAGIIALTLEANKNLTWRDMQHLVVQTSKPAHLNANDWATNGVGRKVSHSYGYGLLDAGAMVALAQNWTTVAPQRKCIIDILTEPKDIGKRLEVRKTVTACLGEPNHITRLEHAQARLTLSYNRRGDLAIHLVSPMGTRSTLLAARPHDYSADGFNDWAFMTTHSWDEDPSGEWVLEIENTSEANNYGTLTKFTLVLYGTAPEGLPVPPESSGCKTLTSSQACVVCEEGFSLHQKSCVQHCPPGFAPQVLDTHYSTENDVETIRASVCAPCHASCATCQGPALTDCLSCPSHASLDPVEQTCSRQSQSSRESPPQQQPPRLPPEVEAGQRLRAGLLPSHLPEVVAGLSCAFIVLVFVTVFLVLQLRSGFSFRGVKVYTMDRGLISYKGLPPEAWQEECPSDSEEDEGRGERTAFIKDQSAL
- Assay comment: furin cleavage Z-score vs untreated control; higher = more cleavage, active = 3.5 or more, inactive = 1 or less, 8 variable residues between constant flanks
- Condition details: 30 min
The list shows a part of the results. No count for the full screen is at hand.
Measured metric: furin cleavage Z-score
I'd appreciate a reply containing only the number, no unit.

Query: Which measured furin cleavage Z-score value corresponds to CADKNQVEGEAGNASASA [HC686] ?
Response: -1.82

Query: Entry to check: CAVEIRQVGDAGNASASA [HC1206]
Response: -1.86

Query: Entry to check: CAYSHRHKRVAGNASASA [FS-903]
Response: 6.65

Query: Entry to check: CAHLERHKRVAGNASASA [FS-1631]
Response: 8.68

Query: Entry to check: CAAAYCLSTGAGNASASA [HC996]
Response: -0.487

Query: Entry to check: CALAWRSGRVAGNASASA [FS-817]
Response: 0.218

Query: Entry to check: CAVQARDLGPAGNASASA [FS-1874]
Response: -1.57

Values from the supplement of paper PMC3545927
